B1: PSD2 (parent)
chain: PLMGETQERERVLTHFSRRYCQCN

- Variants of: B1
- protocol: protein stability index of a GFP-peptide fusion (GPS, HEK-293T) (PSI 1-6); higher = more stable;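 further: lentivirally expressed fusions sorted by FACS into six bins by GFP to DsRed ratio, PSI derived from sequencing read proportions per bin multiplied by bin number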
- condition details: c terminus: a fixed tail appended
readout name: protein stability index

Return reported protein stability index; argument: H15L
2.7

Return reported protein stability index; argument: R19Q
3.29

Return reported protein stability index; argument: F16W
2.1

Return reported protein stability index; argument: F16T
3.91

Return reported protein stability index; argument: Q22I
2.09

Return reported protein stability index; argument: C23K
4.92

Return reported protein stability index; argument: L2E
3.91

Reference source: the supplement of paper PMC10567573
